tested on: erythrocytes infected with 3D7 trophozoites; format: cell-based, Plasmodium falciparum; conditions: sheet Ratio; Exp2, 3hr
Where a name gives a salt, the structure may show the parent alone. Peptide text beside a SMILES is read from it.
// reported Ratio of metabolite abundance, Exp2_3hr per item
Give the value as a plain number.

The examples below pair each entry with its known result.
Molecule | Tested on | Ratio of metabolite abundance, Exp2_3hr
CC(C)[C@H](NC(=O)[C@@H](N)Cc1c[nH]cn1)C(=O)N[C@@H](CC(=O)O)C(=O)N[C@@H](CC(=O)O)C(=O)O [HVDD] (H-HVDD-OH) | erythrocytes infected with 3D7 trophozoites | 0.3961
Cc1cc2nc3c(=O)[nH]c(=O)nc-3n(C[C@H](O)[C@H](O)[C@H](O)COP(=O)(O)O)c2cc1C | erythrocytes infected with 3D7 trophozoites | 1.123
Nc1ccn([C@@H]2O[C@H](COP(=O)(O)O)[C@@H](O)[C@H]2O)c(=O)n1 | erythrocytes infected with 3D7 trophozoites | 0.5442
Cc1cn([C@H]2C[C@H](O)[C@@H](COP(=O)(O)O)O2)c(=O)[nH]c1=O | erythrocytes infected with 3D7 trophozoites | 1.005
CC(C)[C@H](NC(=O)[C@@H]1CCCN1)C(=O)N[C@@H](CCC(N)=O)C(=O)O [PVQ] (H-Pro-Val-Gln-OH) | erythrocytes infected with 3D7 trophozoites | 1.4303
Nc1ncnc2c1ncn2[C@@H]1O[C@H](COP(=O)(O)OP(=O)(O)O)[C@@H](O)[C@H]1O | erythrocytes infected with 3D7 trophozoites | 0.7455

Determine its reported Ratio of metabolite abundance, Exp2_3hr: O=C1CC(C(=O)O)NC(=O)N1 (stereo not drawn) [Dihydroorotate]
0.4712

Determine its reported Ratio of metabolite abundance, Exp2_3hr: CC(C)CCC[C@@H](C)[C@H]1CC[C@H]2[C@@H]3CC=C4C[C@@H](OS(=O)(=O)O)CC[C@]4(C)[C@H]3CC[C@]12C [Cholesteryl sulfate]
1.057

Determine its reported Ratio of metabolite abundance, Exp2_3hr: Nc1ncnc2c1ncn2[C@@H]1O[C@H](COP(=O)(O)O)[C@@H](O)[C@H]1O
0.5002

Determine its reported Ratio of metabolite abundance, Exp2_3hr: CC(C)[C@H](NC(=O)[C@@H]1CCCN1)C(=O)N[C@@H](CCC(N)=O)C(=O)N[C@@H](C)C(=O)O [PVQA] (H-PVQA-OH)
0.5356

Determine its reported Ratio of metabolite abundance, Exp2_3hr: O=P(O)(O)OC[C@H]1OC(OP(=O)(O)OP(=O)(O)O)[C@H](O)[C@@H]1O (stereo partly drawn) [5-Phosphoribosyl-1-pyrophosphate]
1.2624

Determine its reported Ratio of metabolite abundance, Exp2_3hr: O=C(O)C[C@H](NC(=O)[C@@H]1CCCN1)C(=O)O [PD] (H-Pro-Asp-OH)
1.209

Determine its reported Ratio of metabolite abundance, Exp2_3hr: O=c1[nH]cnc2c1ncn2[C@@H]1O[C@H](COP(=O)(O)OP(=O)(O)O)[C@@H](O)[C@H]1O
0.6148

Determine its reported Ratio of metabolite abundance, Exp2_3hr: Nc1ncnc2c1ncn2[C@@H]1O[C@H](CSCC[C@H](N)C(=O)O)[C@@H](O)[C@H]1O
0.8753

Determine its reported Ratio of metabolite abundance, Exp2_3hr: O=C[C@H](O)[C@H](O)[C@H](O)COP(=O)(O)O [Ribose-5-phosphate]
1.2203

====

test system: erythrocytes infected with 3D7 trophozoites; type: cell-based, Plasmodium falciparum; conditions: sheet Ratio; Exp2, 1hr
// reported Ratio of metabolite abundance, Exp2_1hr per item
Give the value as a plain number.

Compound | Tested on | Measured property | Experimental value
Cc1cn([C@H]2C[C@H](O)[C@@H](COP(=O)(O)O)O2)c(=O)[nH]c1=O | erythrocytes infected with 3D7 trophozoites | Ratio of metabolite abundance, Exp2_1hr | 1.082

Determine its reported Ratio of metabolite abundance, Exp2_1hr: Nc1ncnc2c1ncn2[C@H]1C[C@H](O)[C@@H](COP(=O)(O)OP(=O)(O)OP(=O)(O)O)O1
1.009

Determine its reported Ratio of metabolite abundance, Exp2_1hr: Nc1nc2c(ncn2[C@@H]2O[C@H](COP(=O)(O)OP(=O)(O)OP(=O)(O)O)[C@@H](O)[C@H]2O)c(=O)[nH]1
0.6384

Determine its reported Ratio of metabolite abundance, Exp2_1hr: CC(=O)SCCNC(=O)CCNC(=O)[C@H](O)C(C)(C)COP(=O)(O)OP(=O)(O)OC[C@H]1O[C@@H](n2cnc3c(N)ncnc32)[C@H](O)[C@@H]1OP(=O)(O)O
0.6969

Determine its reported Ratio of metabolite abundance, Exp2_1hr: Cc1cc2nc3c(=O)[nH]c(=O)nc-3n(C[C@H](O)[C@H](O)[C@H](O)COP(=O)(O)OP(=O)(O)OC[C@H]3O[C@@H](n4cnc5c(N)ncnc54)[C@H](O)[C@@H]3O)c2cc1C
0.9752

Determine its reported Ratio of metabolite abundance, Exp2_1hr: CC(=O)N[C@@H](CCC(=O)O)C(=O)O [N-Acetyl-glutamate]
1.417

Determine its reported Ratio of metabolite abundance, Exp2_1hr: O=C[C@H](O)COP(=O)(O)O [Glyceraldehyde 3-phosphate]
0.5818

====

system: erythrocytes infected with 3D7 trophozoites; type: cell-based, Plasmodium falciparum; settings: sheet Ratio; Exp3, 3hr
# binarize Ratio of metabolite abundance, Exp3_3hr: threshold 1 inclusive, high side Criterion met, low side Criterion not met

A selection of reference data follows.
Molecule | Class name
Nc1ccn([C@@H]2O[C@H](COP(=O)(O)OP(=O)(O)O)[C@@H](O)[C@H]2O)c(=O)n1 [CDP] | Criterion not met
O=P(O)(O)OC[C@H]1OC(O)(CO)[C@@H](O)[C@@H]1O (some centres unmarked) [Fructose-6-Phosphate] | Criterion met
O=C[C@H](O)COP(=O)(O)O [Glyceraldehyde 3-phosphate] | Criterion not met
Nc1ccn([C@@H]2O[C@H](COP(=O)(O)OP(=O)(O)OP(=O)(O)O)[C@@H](O)[C@H]2O)c(=O)n1 [CTP] | Criterion not met
NC(=O)C1=CN([C@@H]2O[C@H](COP(=O)(O)OP(=O)(O)OC[C@H]3O[C@@H](n4cnc5c(N)ncnc54)[C@H](O)[C@@H]3O)[C@@H](O)[C@H]2O)C=CC1 [NADH] | Criterion not met
O=c1[nH]cnc2c1ncn2[C@@H]1O[C@H](COP(=O)(O)OP(=O)(O)O)[C@@H](O)[C@H]1O [IDP] | Criterion met

We now examine a further molecule.
Answer whether Ratio of metabolite abundance, Exp3_3hr of O=C(O)[C@@H]1CC(O)CN1 (stereo partly drawn) [Hydroxy-L-proline] is greater than or equal to 1.
Criterion met

====

// reported Ratio of metabolite abundance, Exp2_1hr per item
test system: erythrocytes infected with 3D7 trophozoites; format: cell-based, Plasmodium falciparum; conditions: sheet Ratio; Exp2, 1hr
Peptide text beside a SMILES is read from it.
Give the value as a plain number.

The examples below pair each entry with its known result.
Molecule | Ratio of metabolite abundance, Exp2_1hr
Nc1nc2c(ncn2[C@@H]2O[C@H](COP(=O)(O)O)[C@@H](O)[C@H]2O)c(=O)[nH]1 [GMP] | 0.6356
Nc1ccn([C@@H]2O[C@H](COP(=O)(O)OP(=O)(O)O)[C@@H](O)[C@H]2O)c(=O)n1 [CDP] | 1.081
CC(O)C(=O)O (stereo not shown) [Lactate] | 5.913

// next item, Ratio of metabolite abundance, Exp2_1hr requested
Determine its reported Ratio of metabolite abundance, Exp2_1hr: CC(C)[C@H](NC(=O)[C@@H]1CCCN1)C(=O)N[C@@H](CCC(N)=O)C(=O)N[C@@H](C)C(=O)O [PVQA] (H-PVQA-OH)
0.7152

====

// reported Ratio of metabolite abundance, Exp3_3hr per item
system: erythrocytes infected with 3D7 trophozoites; type: cell-based, Plasmodium falciparum; details: sheet Ratio; Exp3, 3hr
Peptide text beside a SMILES is read from it.
Give the value as a plain number.

The examples below pair each entry with its known result.
Compound | Ratio of metabolite abundance, Exp3_3hr
CC(C)[C@H](NC(=O)[C@H](CCC(=O)O)NC(=O)[C@@H](N)CC(=O)O)C(=O)NCC(=O)O [DEVG] (H-DEVG-OH) | 1.261
Nc1ncnc2c1ncn2[C@H]1C[C@H](O)[C@@H](COP(=O)(O)OP(=O)(O)OP(=O)(O)O)O1 | 0.9965
Cc1cn([C@H]2C[C@H](O)[C@@H](COP(=O)(O)OP(=O)(O)OP(=O)(O)O)O2)c(=O)[nH]c1=O | 1.053
O=P(O)(O)OC[C@H]1O[C@](O)(COP(=O)(O)O)[C@@H](O)[C@@H]1O [Fructose-1-6-bisphosphate] | 1.49
Nc1nc2c(ncn2[C@H]2C[C@H](O)[C@@H](COP(=O)(O)O)O2)c(=O)[nH]1 | 0.9165

Determine its reported Ratio of metabolite abundance, Exp3_3hr: CC(C)(COP(=O)(O)OP(=O)(O)OC[C@H]1O[C@@H](n2cnc3c(N)ncnc32)[C@H](O)[C@@H]1OP(=O)(O)O)[C@@H](O)C(=O)NCCC(=O)NCCS
0.6678

Determine its reported Ratio of metabolite abundance, Exp3_3hr: Cc1cc2nc3c(=O)[nH]c(=O)nc-3n(C[C@H](O)[C@H](O)[C@H](O)COP(=O)(O)OP(=O)(O)OC[C@H]3O[C@@H](n4cnc5c(N)ncnc54)[C@H](O)[C@@H]3O)c2cc1C
0.7422

Determine its reported Ratio of metabolite abundance, Exp3_3hr: O=C[C@H](O)[C@H](O)COP(=O)(O)O [Erythrose 4-phosphate]
0.584

Determine its reported Ratio of metabolite abundance, Exp3_3hr: NC(=O)N[C@@H](CC(=O)O)C(=O)O [N-Carbamoyl-L-aspartate]
0.3426

Determine its reported Ratio of metabolite abundance, Exp3_3hr: Cc1cc2nc3c(=O)[nH]c(=O)nc-3n(C[C@H](O)[C@H](O)[C@H](O)COP(=O)(O)O)c2cc1C
0.5214

Determine its reported Ratio of metabolite abundance, Exp3_3hr: N[C@@H](CCC(=O)O)C(=O)O [Glutamate]
0.9619
